These data points were gathered from ChEMBL document CHEMBL6083265.

tested on: Huh-7; test: cells; settings: Homo sapiens, Huh-7, 48 h, read-out: INH
Description: Anticancer activity against human Huh-7 cells assessed as inhibition of cell viability at 8 uM incubated for 48 hrs by CCK-8 assay (Rvb = 0 +/- 0.88 %)
Measurement Kind: inhibition at 8 µM (%)
# unit: % | format: bare number

>  <Structure>
O=C(Nc1ccc2nc(-c3ccco3)c(-c3ccco3)nc2c1)N1CCCCCC1

>  <Measurement Units>
%

>  <inhibition at 8 µM>
32.8

$$$$
>  <Structure>
S=C(Nc1ccc2nc(-c3ccco3)c(-c3ccco3)nc2c1)c1ccccc1

>  <Measurement Units>
%

>  <inhibition at 8 µM>
33.8

$$$$
>  <Structure>
O=C1CCCN(C(=S)Nc2ccc3nc(-c4ccco4)c(-c4ccco4)nc3c2)CC1

>  <Measurement Units>
%

>  <inhibition at 8 µM>
29.5

$$$$
>  <Structure>
S=C(NCc1ccncc1)Nc1ccc2nc(-c3ccccn3)c(-c3ccccn3)nc2c1

>  <Measurement Units>
%

>  <inhibition at 8 µM>
39.8

$$$$
>  <Structure>
COC(=O)CCCNC(=S)Nc1ccc2nc(-c3ccco3)c(-c3ccco3)nc2c1

>  <Measurement Units>
%

>  <inhibition at 8 µM>
20.2

$$$$

From here, focus on the item given below.
Lab request: please report inhibition at 8 µM under test system Huh-7 for "COc1ccc(CNC(=S)Nc2ccc3nc(-c4ccco4)c(-c4ccco4)nc3c2)cc1"
32.9
